# Tested on: human neuroblastoma cell lines SH-SY5Y treated with 1-methyl-4-phenylpyridinium (MPP+)
# method: Improvement of mitochondrial function (Alamar Blue mitochondrial oxidation reduction activity) in MPP+-treated SH-SY5Y cells
# Format: cell-based
# settings: compound 1 μg/ml, 1.5 mM MPP+, relative to cells in DMSO alone = 100%, read-out: Fluorescence Intensity (%)
Each record's class is read off its activity at 1 µg/mL using these ranges: class 1 (below 50%), class 2 (50% to below 70%), class 3 (70% or more)

CCCSc1ccc(C)c2c(=O)c(-c3ccc(OC)cc3)c[nH]c12	class 1
COc1ccc(OCC2CC2)c2[nH]c(C)c(-c3ccco3)c(=O)c12	class 3
CCCOc1ccc(C)c2c(=O)c(-c3ccc(OC)cc3)c[nH]c12	class 1

Task item: Sort CCCOc1ccc(C)c2c(=O)c(-c3ccncc3)c[nH]c12 into one of the categories.
Reply: class 1

Task item: Sort CCCOc1ccc(C2CC2)c2c(=O)c(-c3ccc(OC)cc3)c[nH]c12 into one of the categories.
Reply: class 1

Task item: Sort COc1ccc(-c2c[nH]c3c(-c4ccco4)ccc(C)c3c2=O)cc1 into one of the categories.
Reply: class 1

Task item: Sort COc1ccc(-c2c[nH]c3c(OCC4CC4)cc(C)c(C)c3c2=O)cc1 into one of the categories.
Reply: class 1
